The values you see were collected from the kinase profiling compilation of Christmann-Franck et al. (2016).

# SYSTEM_TESTED: AURKC (human)
# PROTOCOL_TEXT: radiometric filter-binding kinase assay, Kinase HotSpot
# PARTICULARS: compound 0.5 µM; ATP 10 µM
residual activity: recorded values
Give just the numeric value; % need not be written.

For orientation, consider the following solved cases.
In [3]: df
Out[3]:
                                   compound      quantity_kind  scale_unit  obs_value
0  Oc1ccc(-c2nc(-c3ccc(F)cc3)c(-c3ccncc3)[nH]2)cc1  residual activity           %       94.2
1  Nc1nc(Nc2ccc(S(N)(=O)=O)cc2)nn1C(=O)c1c(F)cccc1F  residual activity           %       28.3
2  CS(=O)c1ccc(-c2nc(-c3ccc(F)cc3)c(-c3ccncc3)[nH]2)cc1 (stereo not given)  residual activity           %       98.5
3  O=c1cc(-c2cccc3c2Sc2ccccc2S3)oc(N2CCOCC2)c1  residual activity           %       84.9
4  Nc1nc(Nc2ccc(S(N)(=O)=O)cc2)nn1C(=S)Nc1c(F)cccc1F  residual activity           %       16.2
5  CC(C)(C)c1nc2c3ccc(F)cc3c3c(=O)[nH]ccc3c2[nH]1  residual activity           %       29.3

[ask] Annotate the compound `Cc1cc2ncc(-c3ccccc3)nc2cc1C` with its measured residual activity.
[reply] 92.1

[ask] Annotate the compound `NC(=O)c1ccc(N(C(N)=O)c2c(F)cccc2F)nc1-c1ccc(F)cc1F` with its measured residual activity.
[reply] 83.8

[ask] Annotate the compound `O=C1Nc2cc(Br)ccc2/C1=C1/Nc2ccccc2/C1=N\O` with its measured residual activity.
[reply] 51.8

[ask] Annotate the compound CSc1nc(-c2ccc(F)cc2)c(-c2ccnc(NC(C)c3ccccc3)c2)[nH]1 (stereo not given) with its measured residual activity.
[reply] 100

[ask] Annotate the compound `Clc1ccc(Nc2nnc(Cc3ccncc3)c3ccccc23)cc1` with its measured residual activity.
[reply] 87

[ask] Annotate the compound `COc1ccc(-c2cnc3c(-c4ccsc4)cnn3c2)cc1` with its measured residual activity.
[reply] 75.3

[ask] Annotate the compound `O=C1Nc2ccccc2/C1=C\c1c(Cl)[nH]c2ccccc12` with its measured residual activity.
[reply] 89.5

[ask] Annotate the compound `Nc1n[nH]c2nnc(-c3c(-c4ccccc4)nn4ccccc34)cc12` with its measured residual activity.
[reply] 96.4

[ask] Annotate the compound `CCCNC(=O)Nc1ccc(Oc2ncnc3cc(OC)c(OC)cc23)cc1Cl` with its measured residual activity.
[reply] 71.6
